Let's look at some compounds and their measured z-score.
- test system: NADPH oxidase 5 (Homo sapiens) (UniProt Q96PH1)
- Sequence (Q96PH1 whole entry, looked up): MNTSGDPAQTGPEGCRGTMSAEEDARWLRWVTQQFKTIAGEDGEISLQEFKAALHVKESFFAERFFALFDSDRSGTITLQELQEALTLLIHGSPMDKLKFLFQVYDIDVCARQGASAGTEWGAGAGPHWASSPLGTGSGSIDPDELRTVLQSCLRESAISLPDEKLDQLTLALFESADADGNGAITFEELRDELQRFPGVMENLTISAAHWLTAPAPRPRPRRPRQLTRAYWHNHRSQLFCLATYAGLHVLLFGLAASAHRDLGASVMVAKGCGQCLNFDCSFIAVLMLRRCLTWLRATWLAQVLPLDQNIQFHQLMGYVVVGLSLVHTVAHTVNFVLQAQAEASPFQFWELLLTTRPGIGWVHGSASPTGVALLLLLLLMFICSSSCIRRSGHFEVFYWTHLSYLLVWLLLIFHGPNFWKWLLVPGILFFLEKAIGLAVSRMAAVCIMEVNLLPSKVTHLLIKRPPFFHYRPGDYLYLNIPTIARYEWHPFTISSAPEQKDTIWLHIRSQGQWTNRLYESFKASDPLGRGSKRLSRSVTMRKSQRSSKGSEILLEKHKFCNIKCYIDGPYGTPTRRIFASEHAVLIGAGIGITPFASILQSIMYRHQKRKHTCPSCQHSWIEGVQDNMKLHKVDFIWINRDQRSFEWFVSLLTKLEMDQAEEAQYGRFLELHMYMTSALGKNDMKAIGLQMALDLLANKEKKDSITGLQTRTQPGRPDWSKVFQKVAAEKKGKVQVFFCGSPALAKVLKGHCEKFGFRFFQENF
- assay explanation: compounds shifting NOX5 Amplex Red fluorescence – cell-based, HEK293-NOX5, NOX inhibitor project, primary screen (AID 1161)
- conditions: HEK293-NOX5, ionomycin, 45 min, higher = more signal
Quick one: just the number, no unit, thanks!

Input line: Output z-score of `COc1ccccc1CN1C(=O)c2ccccc2[C@](Cc2ccccc2I)(C(=O)NCc2ccccc2)[C@@H]1c1ccc(CO)cc1`
Output line: 1.34

Input line: Given `COCCOC(=O)N1C(=O)[C@@]2(c3cc(C#Cc4ccc(OC)cc4)ccc31)[C@H](C(N)=O)[C@H]1C(=O)O[C@H](c3ccccc3)[C@H](c3ccccc3)N1[C@@H]2c1ccc(O)cc1` , respond with its z-score.
Output line: 0.128

Input line: Determine its reported z-score: O=C1OCC=C[C@H]2OC34C=CCN(c5ccc6ccccc6c5)C(=O)[C@H]3N(CCO)C(=O)[C@@H]4[C@@H]12 (stereo partly specified)
Output line: 1.46

Input line: Please give the documented z-score of `C=C(COC)C(=O)CC[C@H](OC(=O)c1cccnc1)c1ccccc1OCCO`
Output line: -1.26

====

- assay explanation: binders from COS7 lysate, DM2A8 probe, primary screen, torsin A project, cell lysate, small-molecule microarray, fluorescence 635/667 (AID 1065)
- conditions: higher = more signal, COS7 lysate expressing mutant human TOR1A
endpoint label: composite z-score

O=C1C2C=CC(C(O)c3cccc4ccccc34)N(n3cnnc3)C2C(=O)N1Cc1ccccc1 (stereo not drawn)    0.0748
COc1ccc(C#Cc2ccc3c(c2)[C@]2(C(=O)N3)[C@H](C(=O)N3CCc4cc(OC)c(OC)cc4C3)[C@H]3C(=O)O[C@H](c4ccccc4)[C@H](c4ccccc4)N3[C@@H]2c2ccc(OCCO)cc2)cc1    0.487

Proceeding to the next compound to report its composite z-score.
Input line: # return recorded composite z-score for input `CN(C)CCCN1C(=O)[C@@]2(c3ccc([N+](=O)[O-])cc3)CC(=O)N(C3CCCCC3)[C@@H]2c2ccc(CO)cc21`
Output line: -0.0124

====

- assay explanation: small molecules captured by biotinylated probe aFGF10 – biochemical, small-molecule microarray, fluorescence 635/667, stem cell growth factor project, primary screen (AID 1071);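 note: score merges 667 nm spot intensity and signal to noise from triplicate slides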
- conditions: higher = more signal
Classification field: enter t for composite z-score values not below 0.1, f for values below it.

Study these solved cases before continuing.
C=CCNC(=O)[C@@H]1[C@H]2C(=O)O[C@H](c3ccccc3)[C@H](c3ccccc3)N2[C@H](c2ccccc2OCCO)[C@@]12C(=O)N(C(=O)OCCOC)c1ccc(C#CCC(C(=O)OC)C(=O)OC)cc12    t
C=CC[C@]1(C(=O)NCCN2CCOCC2)N=C(c2ccc(OCCCO)cc2)O[C@H]1c1ccccc1N=[N+]=[N-]    t
COc1ccc([Si](C)(C)[C@H]2[C@H](CC(=O)N3CCC[C@H]3CO)O[C@@]3(C(=O)N(Cc4cccc(N5CCC5=O)c4)c4ccccc43)[C@@H]2C)cc1    t
CCCCN1CC=CC23O[C@@H]4C=CCCOC(=O)C4[C@H]2C(=O)N(CCCO)[C@@H]3C1=O (some centres undefined)    f
NC(=O)[C@]1(Cc2ccccc2)N=C(c2ccc(OCCCO)cc2)O[C@@H]1c1ccccc1    t
Cc1ccc(S[C@]2(C(=O)NCCCN(C)C)CC(=O)N(C(C)C)[C@@H]2c2ccc(CO)cc2I)cc1    f
O=C1OCCC=C[C@H]2OC34C=CCN(c5ccc6ccccc6c5)C(=O)[C@H]3N(CCCCCCO)C(=O)[C@@H]4C12 (some centres undefined)    f
O=C(NCCN1CCOCC1)[C@@H]1c2ccccc2C(=O)N(Cc2cc(F)cc(C(F)(F)F)c2)[C@H]1c1ccc(CO)cc1    f
CCOC(=O)C[C@H]1[C@H](OC(=O)c2ccc(C(=O)c3ccccc3)cc2)[C@@H](NC(=O)c2ccc3ccccc3n2)c2cc(OCCCO)ccc2N1C(=O)c1ccc2ccccc2n1    t
NC(=O)NCC#Cc1ccc2c(c1)[C@]1(C(=O)N2)[C@H](c2ccc(O)cc2)N2[C@H](c3ccccc3)[C@H](c3ccccc3)OC(=O)[C@H]2[C@@H]1C(=O)N1CCN(c2ncccn2)CC1    t

Input line: hey, is composite z-score for this one >= 0.1? O=C1OCCC/C=C\[C@H]2OC34C=CCN(Cn5nnc6ccccc65)C(=O)[C@H]3N(CCCO)C(=O)[C@@H]4C12 (some centres undefined)
Output line: f

Input line: Does the molecule CCCCCCCCCCC(O)C1C=CC2C(=O)N(c3ccccc3)C(=O)C2N1Nc1ccc([N+](=O)[O-])cc1 (centres undefined) have recorded composite z-score that is 0.1 or more?
Output line: t

Input line: Is composite z-score at least 0.1? Consider `Cc1ccc(N2C(=O)c3ccccc3[C@](C)(C(=O)NCCN3CCOCC3)[C@@H]2c2ccc(CO)cc2)nc1`
Output line: f

====

- assay explanation: change in splice reporter luminescence, either direction, cell-based, HEK293, spliceosome inhibition project, primary screen (AID 1101);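 note: HEK293 cells carrying a splicing-competent luciferase reporter gene; test concentration not given here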
- conditions: HEK293 splicing luciferase reporter, 24 h, higher = more signal, called active from +8 up or from −8 down
endpoint label: z-score
Just the number, please, no unit attached.

COc1ccc(C(=O)Nc2cccc(CN3C(=O)[C@@]4(O[C@@H](CCn5cc([C@H](O)c6ccccc6)nn5)[C@H]([Si](C)(C)c5ccc(OC)cc5)[C@H]4C)c4ccccc43)c2)cc1    -1.46
COC(=O)[C@@]1(Cc2ccc(F)cc2)[C@H]2c3cc(C(=O)N4CCCC4)n(CCc4ccc(OC)c(Br)c4)c3C[C@H]2CN1C(=O)c1ccccc1    -2.23
O=C1C[C@@](C(=O)O)(c2ccc([N+](=O)[O-])cc2)[C@@H](c2ccc(CO)cc2I)N1C1CCCCC1    -2.72
COCCOC(=O)N1C(=O)[C@@]2(c3cc(C#Cc4ccc(OC)cc4)ccc31)[C@H](C(N)=O)[C@H]1C(=O)O[C@H](c3ccccc3)[C@H](c3ccccc3)N1[C@@H]2c1ccc(O)cc1    -0.298

Input line: Using the record for `OCCCc1cc[n+](Cc2cccc(OC(F)(F)F)c2)cc1` , state its measured z-score.
Output line: -0.109

Input line: For the molecule `COc1ccc([Si](C)(C)[C@@H]2[C@@H](CCO)O[C@]3(C(=O)N(Cc4ccccc4)c4ccc(N(C=O)c5ccccc5)cc43)[C@H]2C)cc1` , give its measured z-score value.
Output line: -1.1

====

- assay explanation: small molecules captured by biotinylated probe aFSTL3 – biochemical, small-molecule microarray, fluorescence 635/667, stem cell growth factor project, primary screen (AID 1064);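 note: measures binding of the biotinylated anti-FSTL3 antibody to printed compounds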
- conditions: higher = more signal
endpoint label: composite z-score
Enter the number alone.

A selection of reference data follows.
CC(C)C(=C=CC[C@H](O)c1ccccc1OCCO)CCO    0.0409
C=CC[C@@]1(C(N)=O)N=C(c2ccc(OCCCO)cc2)O[C@@H]1c1ccccc1N=[N+]=[N-]    1.68
NC(=O)NCC#Cc1ccc2c(c1)[C@]1(C(=O)N2)[C@H](c2ccccc2OCCO)N2[C@H](c3ccccc3)[C@H](c3ccccc3)OC(=O)[C@H]2[C@@H]1C(=O)N1CCCCCCC1    3.75
CC(C)(C)OC(=O)CC[C@]1(C(=O)NCC(O)CO)N=C(c2ccc(OCCCO)cc2)O[C@H]1c1ccccc1CN=[N+]=[N-] (stereo not given in full)    1.32
C=CCN1Cc2ccccc2C[C@]2(N=C(c3ccc(OCCCO)cc3)O[C@@H]2c2ccccc2)C1=O    0.211
COCCOC(=O)N1C(=O)[C@@]2(c3cc(C#CC4(O)CCCCCC4)ccc31)[C@H](c1ccc(O)cc1)N1[C@H](c3ccccc3)[C@H](c3ccccc3)OC(=O)[C@H]1[C@@H]2C(=O)N1CCc2cc(OC)c(OC)cc2C1    0.244

# ---- query compound ----
Input line: Specify composite z-score for `Cc1ccc(S[C@]2(C(=O)NCc3ccccc3)CC(=O)N(Cc3cc(C(F)(F)F)cc(C(F)(F)F)c3)[C@@H]2c2ccc(CO)cc2)cc1` and stop.
Output line: -0.989

====

- assay explanation: S6 kinase pathway phospho-S6 level changes – cell-based, A549, cytoblot, luminescence, serum-stimulated, primary screen (AID 1158);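 note: serum-stimulated A549 lung adenocarcinoma cells; signal is phosphorylated S6 detected by cytoblot immunostaining with HRP secondary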
- conditions: 5 h, higher = more signal
Rule: z-score of 0.5 or more gives Criterion met; anything lower gives Criterion not met.

Input line: Reported z-score at or above 0.5? `C=CCOC(=O)[C@@H]1[C@H]2C(=O)O[C@H](c3ccccc3)[C@H](c3ccccc3)N2[C@H](c2ccc(OCCOC(=O)[C@H]3C[C@H]4C(=O)N[C@@H](CC(C)C)C(=O)N4[C@H]3c3cccc(OCCO)c3)cc2)[C@@]12C(=O)Nc1ccc(I)cc12`
Output line: Criterion not met

====

- assay explanation: plasmodial surface anion channel blockers, osmotic lysis – cell-based, P. falciparum Indochina, OD700, 1 h, primary screen (AID 1154)
- conditions: P. falciparum Indochina infected RBC osmotic lysis, higher = more signal, called active from +8 up or from −8 down
Documented z-score across a set of compounds
Output: the number by itself.

Would you please look over these solved cases?
CCN(CC)c1ccc(N2CC=CC34O[C@@H]5C=CCCOC(=O)C5[C@H]3C(=O)N(CCCO)[C@@H]4C2=O)cc1 (some centres not stated)    0.555
COc1ccc([Si](C)(C)[C@H]2[C@H](CC(=O)N3CCC[C@H]3CO)O[C@@]3(C(=O)N(Cc4cccc(N5CCC5=O)c4)c4ccccc43)[C@@H]2C)cc1    6.65

Input line: Note z-score for the compound shown: `Cc1ccccc1/C=C/C=O`
Output line: 0.51

Input line: Name the recorded z-score of the compound listed here: `COc1ccc([Si](C)(C)[C@@H]2[C@@H](CC(=O)N3Cc4ccccc4C[C@H]3CO)O[C@]3(C(=O)N(Cc4cccc(N5C(=O)COc6ccccc65)c4)c4ccccc43)[C@H]2C)cc1`
Output line: 4.94

Input line: Give the reported value of z-score for this record: `COc1ccc(C#Cc2ccc3c(c2)[C@]2(C(=O)N3)[C@H](C(=O)N3CCN(c4ncccn4)CC3)[C@H]3C(=O)O[C@H](c4ccccc4)[C@H](c4ccccc4)N3[C@@H]2c2ccc(O)cc2)cc1`
Output line: 1.5

Input line: Provide z-score value for the following compound: `C=C(CCCC)C(=O)CC[C@H](OC(=O)c1ccccc1-c1ccccc1C(=O)O)c1ccc(CO)o1`
Output line: 1.69

Input line: Hello, please tell me recorded z-score for this one: `O=C1O[C@@H](c2ccccc2)[C@@H](c2ccccc2)N2[C@@H](c3ccc(O)cc3)[C@]3(C(=O)Nc4ccc(C#CCCO)cc43)[C@@H](C(=O)N3CCCCCCC3)[C@H]12`
Output line: 1.27
